Entry source: PubChem BioAssay (NCI)

Tested on: NCI-H23 lung
Procedure Details: NCI tumour cell line growth inhibition, 48 h
Items are presented alongside their recorded TGI.
Property Measured: TGI (µM)

compound="CCCCCCCC(=O)[O][Hg][CH2]C1COC([CH2][Hg][O]C(=O)CCCCCCC)CO1 (centres undefined)" units_symbol=µM comparison_sign== assay_result=28.6
compound=CCCN(CCC)C1=Nc2ccccc2-n2cnnc2C1 units_symbol=µM comparison_sign=> assay_result=100
compound=CN1CCN(Cc2cc(NC(=O)c3cccc(C#Cc4cccc5[nH]nc(N)c45)c3)cc(C(F)(F)F)c2)CC1 units_symbol=µM comparison_sign== assay_result=3.4
compound="CC1=C2C3OC(=O)C(C)C3CCC2(C)C=CC1=Nc1ccccc1 (centres undefined)" units_symbol=µM comparison_sign=> assay_result=100
compound=CN1CCN(Cc2ccc(NC(=O)c3cncc(C#Cc4cnc(N)c5cnccc45)c3)cc2C(F)(F)F)CC1 units_symbol=µM comparison_sign== assay_result=3.81
compound=CC(C)[C@@H](C)[C@@]1(C)C[C@@H]1[C@@H](C)[C@H]1CC[C@@H]([C@@H]2CC=C3C[C@@H](O)CC[C@]3(C)C2=O)[C@]1(C)CCO units_symbol=µM comparison_sign== assay_result=27.2
compound=COc1ccc2c(c1)C(=O)c1c-2c(Nc2cccc(C(C)=O)c2)nc2ccccc12 units_symbol=µM comparison_sign== assay_result=19.3
compound=CC[C@H](C)[C@H](NC(=O)[C@@]1(O)[C@H](O)[C@]2(CC)C=CCN3CC[C@@]4(c5cc(Br)c(OC)cc5N(C)[C@@H]14)[C@@H]32)C(=O)OC units_symbol=µM comparison_sign=> assay_result=100
compound=COC(=O)C1=NN2c3ccccc3CN([C@@H](C)c3ccccc3)C(=O)[C@@H]2[C@H]1c1ccccc1 units_symbol=µM comparison_sign=> assay_result=100
compound="CC1C2CC=CC(=O)[C@@]2(C)CCC12OCCO2 (some centres undefined)" units_symbol=µM comparison_sign=> assay_result=100
compound=Cc1ccc2nc(NC(=O)/C(=N\NC(=S)NN)C3C(=O)NC(=S)NC3=O)sc2c1 units_symbol=µM comparison_sign=> assay_result=100
compound=CC(=O)/C(C=Nc1c(C)n(C)n(C)c1=O)=C(/O)c1ccccc1 units_symbol=µM comparison_sign=> assay_result=50
compound=COC1=CC(=O)c2nc(Cl)ccc2C1=O units_symbol=µM comparison_sign== assay_result=3.33
compound=Cc1c(F)c(NC(=O)CN(C)C)c2c(=O)cc(-c3ccc(NC(=O)CN(C)C)c(F)c3)oc2c1F units_symbol=µM comparison_sign== assay_result=36.1
compound=COc1ccc(/C=C/C(=O)c2ccc(OC(=O)/C=C/c3ccccc3)cc2)cc1 units_symbol=µM comparison_sign== assay_result=73.8
compound=COc1cccc(Nc2nccc(-c3cnn4ncccc34)n2)c1 units_symbol=µM comparison_sign== assay_result=0.201
compound=COc1c2c(cc3c1C(=O)Cc1ccc4c(c1CN(C)CC3)OCO4)OCO2 units_symbol=µM comparison_sign=> assay_result=100
compound=COc1cc2ccc1OCc1cccc(n1)COc1ccc(cc1OC)C=NCCNCCN=C2 units_symbol=µM comparison_sign=> assay_result=100
compound=O=[N+]([O-])C(=C/c1cccs1)/C(=C\c1cccs1)[N+](=O)[O-] units_symbol=µM comparison_sign== assay_result=3.52
